- TEST_SYSTEM: GABAA R (α5β2γ2) (Homo sapiens, UniProt P18507+P31644)
- Construct: expressed in transfected cells
- Sequence (P31644 32-462): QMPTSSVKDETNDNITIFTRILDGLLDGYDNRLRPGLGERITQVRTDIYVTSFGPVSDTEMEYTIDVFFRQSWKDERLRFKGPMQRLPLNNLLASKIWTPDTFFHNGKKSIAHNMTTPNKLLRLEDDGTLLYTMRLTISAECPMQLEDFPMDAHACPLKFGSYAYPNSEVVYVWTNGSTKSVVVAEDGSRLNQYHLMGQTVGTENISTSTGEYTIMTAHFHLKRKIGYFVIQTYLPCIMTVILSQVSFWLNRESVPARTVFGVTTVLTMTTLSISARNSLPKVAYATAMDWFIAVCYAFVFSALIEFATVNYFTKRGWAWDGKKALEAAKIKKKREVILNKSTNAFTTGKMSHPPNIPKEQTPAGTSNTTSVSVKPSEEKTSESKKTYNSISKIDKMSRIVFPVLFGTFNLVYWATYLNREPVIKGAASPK
- Sequence (P47870 25-512 partner limits assumed): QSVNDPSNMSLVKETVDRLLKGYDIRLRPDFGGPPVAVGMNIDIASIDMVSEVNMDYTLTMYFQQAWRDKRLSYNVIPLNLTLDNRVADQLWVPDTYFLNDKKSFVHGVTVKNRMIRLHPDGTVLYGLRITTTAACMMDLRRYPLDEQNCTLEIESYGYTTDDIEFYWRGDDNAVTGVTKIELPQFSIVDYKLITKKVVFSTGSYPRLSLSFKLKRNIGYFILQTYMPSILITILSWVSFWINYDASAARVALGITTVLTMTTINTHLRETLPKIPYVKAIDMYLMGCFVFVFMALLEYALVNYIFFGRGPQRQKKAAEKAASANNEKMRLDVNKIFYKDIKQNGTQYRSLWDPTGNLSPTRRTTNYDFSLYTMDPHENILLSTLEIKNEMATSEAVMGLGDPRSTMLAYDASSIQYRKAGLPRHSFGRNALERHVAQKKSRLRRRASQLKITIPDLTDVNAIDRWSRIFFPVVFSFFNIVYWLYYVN
- Sequence (P18507 40-475): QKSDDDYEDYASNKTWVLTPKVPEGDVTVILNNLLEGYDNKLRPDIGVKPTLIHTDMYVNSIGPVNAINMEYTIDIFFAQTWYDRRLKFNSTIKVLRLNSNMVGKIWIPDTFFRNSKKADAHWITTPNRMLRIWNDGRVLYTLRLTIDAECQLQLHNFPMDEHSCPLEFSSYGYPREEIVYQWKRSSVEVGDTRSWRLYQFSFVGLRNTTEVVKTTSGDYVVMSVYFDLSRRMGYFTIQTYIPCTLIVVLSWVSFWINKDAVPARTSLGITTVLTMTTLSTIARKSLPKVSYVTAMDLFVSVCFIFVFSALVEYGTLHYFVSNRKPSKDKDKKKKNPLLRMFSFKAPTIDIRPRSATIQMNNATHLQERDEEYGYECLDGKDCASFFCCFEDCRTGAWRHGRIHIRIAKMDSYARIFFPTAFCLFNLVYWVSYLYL
- EXPERIMENT_SUMMARY: Positive allosteric modulator activity: potentiation of EC20 GABA current in oocytes
- Type: cell-based
- CONDITION_DESCRIPTION: read-out: GABA α5 Functional Data: potentiation, @ 100 nM, EC20 GABA; ranges of the column heads
MEASUREMENT_TYPE: activation at 0.1 µM

* COc1ccc2c(c1)-c1nn(C)cc1Cc1c(-c3nc(C4CCOCC4)no3)ncn1-2 | 20 to 50%
* COc1ccc2c(c1)-c1nn(C)cc1Cc1c(-c3noc([C@@H]4CCCO4)n3)ncn1-2 | 5 to 20%
* COc1ccc2c(c1)-c1nn(CC3CCCO3)cc1Cc1c(-c3nc(C(F)(F)F)no3)ncn1-2 (stereo not drawn) | 5 to 20%
* COc1ccc2c(c1)-c1nn(C(C)C)cc1Cc1c(-c3noc(C(C)C)n3)ncn1-2 | 20 to 50%
* FC(F)(F)c1noc(-c2ncn3c2Cc2cn[nH]c2-c2cc(Cl)ccc2-3)n1 | 20 to 50%
* Clc1ccc2c(c1)-c1[nH]ncc1Cc1c(-c3ncco3)ncn1-2 | 5 to 20%
* Cn1cc2c(n1)-c1cc(Cl)ccc1-n1cnc(-c3noc(COC(C)(C)C)n3)c1C2 | 20 to 50%
* CC(C)c1noc(-c2ncn3c2Cc2cn[nH]c2-c2cc(Cl)ccc2-3)n1 | 20 to 50%
* Cn1cc2c(n1)-c1cc(Cl)ccc1-n1cnc(-c3nc(C4COC4)no3)c1C2 | 20 to 50%
